# TEST_NAME: h-Protein binding value of the compound
# Type: ADME
# Parameters: concentration or dose not given beside the values
# CONDITION_LABEL: human
RESULT_TYPE: Activity (%)
The reply should be a number in %, with the unit left off.

Past entries and their recorded results:
> print(dat)
                                   compound  result.type  readout.units  observed
1  O=C(O)CC(NC(=O)CCCCc1ccc2c(n1)NCCC2)c1cncnc1 (stereo not drawn)     Activity              %        44
2  O=C(O)C[C@H](CCCCCCc1ccc2c(n1)NCCC2)c1ccc2c(c1)OCC2     Activity              %      99.9
3  Cc1ncc([C@@H](CCCCCCc2ccc3c(n2)NCCC3)CC(=O)O)cn1     Activity              %        96
4  COc1ccc([C@@H](CCCCCCc2ccc3c(n2)NCCC3)CC(=O)O)cn1     Activity              %      99.5
5  COc1ncc([C@@H](CCCCCCc2ccc3c(n2)NCCC3)CC(=O)O)cn1     Activity              %        97

The recorded Activity for O=C(O)C[C@H](CCCCCCc1ccc2c(n1)NCCC2)c1cncnc1 is 94

The recorded Activity for CC(C)c1ncc([C@@H](CCCCCCc2ccc3c(n2)NCCC3)CC(=O)O)cn1 is 99
